- assayed target: MERTK (Homo sapiens, UniProt Q12866)
- Sequence (Q12866 21-999): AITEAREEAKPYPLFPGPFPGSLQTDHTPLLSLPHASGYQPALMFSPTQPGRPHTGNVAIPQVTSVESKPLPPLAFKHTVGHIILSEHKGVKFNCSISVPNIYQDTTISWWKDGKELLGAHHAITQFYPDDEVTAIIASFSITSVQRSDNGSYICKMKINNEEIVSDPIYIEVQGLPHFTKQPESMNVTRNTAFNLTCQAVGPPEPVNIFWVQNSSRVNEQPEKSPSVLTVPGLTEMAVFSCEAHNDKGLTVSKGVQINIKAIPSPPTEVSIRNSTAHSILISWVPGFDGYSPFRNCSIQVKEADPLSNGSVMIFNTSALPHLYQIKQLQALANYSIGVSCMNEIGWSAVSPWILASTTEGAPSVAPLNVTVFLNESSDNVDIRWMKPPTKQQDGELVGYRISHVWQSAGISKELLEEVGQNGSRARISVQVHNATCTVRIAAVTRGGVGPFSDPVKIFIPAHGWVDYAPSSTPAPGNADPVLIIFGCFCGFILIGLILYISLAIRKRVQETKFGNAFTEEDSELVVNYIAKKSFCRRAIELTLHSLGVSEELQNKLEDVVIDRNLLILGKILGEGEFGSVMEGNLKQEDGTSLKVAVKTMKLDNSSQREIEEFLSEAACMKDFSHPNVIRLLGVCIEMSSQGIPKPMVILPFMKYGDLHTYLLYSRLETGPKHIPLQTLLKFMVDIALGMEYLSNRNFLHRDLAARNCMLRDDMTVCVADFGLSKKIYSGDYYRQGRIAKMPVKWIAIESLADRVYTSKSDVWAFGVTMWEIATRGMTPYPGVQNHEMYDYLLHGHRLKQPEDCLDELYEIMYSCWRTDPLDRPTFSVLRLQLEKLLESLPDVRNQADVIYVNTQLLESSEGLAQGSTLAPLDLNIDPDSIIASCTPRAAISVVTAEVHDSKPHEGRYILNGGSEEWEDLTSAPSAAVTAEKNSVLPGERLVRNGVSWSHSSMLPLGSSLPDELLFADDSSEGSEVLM
- procedure details: TR-FRET kinase activity assay, MERTK
- Type: biochemical
- particulars: ratio calculated as FLT3 IC50/Mer IC50
endpoint label: Mer/Flt3 ratio (FLT3 IC50/Mer IC50)

Solved entries:
1) COC[C@H](C)Nc1ncc2c(OC3CC(C)(C)N(C)C(C)(C)C3)ncc([C@H]3CC[C@H](O)CC3)c2n1 [Compound 259] = +++ (a ratio of >100)
2) C[C@@H](CC(F)(F)F)Nc1ncc2c(O[C@@H]3C[C@H]4CC[C@@H](C3)N4C[C@@H]3CCCO3)ncc([C@H]3CC[C@H](O)CC3)c2n1 [Compound 421] = +++ (a ratio of >100)
3) CC[C@H](C)Nc1ncc2c(OC3CC(C)(C)N(C)C(C)(C)C3)ncc([C@H]3CC[C@H](O)CC3)c2n1 [Compound 227] = +++ (a ratio of >100)
4) COC[C@H](C)Nc1ncc2c(OC3CCOCC3)ncc(-c3ccc(C#N)cc3)c2n1 [Compound 396] = +++ (a ratio of >100)
5) COC[C@@H](C)Nc1ncc2c(OC3CC(O)C3)ncc([C@H]3CC[C@H](O)CC3)c2n1 (some centres unmarked) [Compound 351] = +++ (a ratio of >100)

Prompt: State its Mer/Flt3 ratio (FLT3 IC50/Mer IC50): C[C@@H](CC(F)(F)F)Nc1ncc2c(OC3CC(C)(C)N(C)C(C)(C)C3)ncc([C@H]3CC[C@H](O)CC3)c2n1 [Compound 386]
Response: +++ (a ratio of >100)

Prompt: State its Mer/Flt3 ratio (FLT3 IC50/Mer IC50): COC[C@H](C)Nc1cc2c(cn1)c(OC1CCOCC1)ncc2[C@H]1CC[C@H](O)CC1 [Compound 285]
Response: +++ (a ratio of >100)

Prompt: State its Mer/Flt3 ratio (FLT3 IC50/Mer IC50): C[C@@H](CC(F)(F)F)Nc1ncc2c(O[C@@H]3C[C@H]4CC[C@@H](C3)N4C[C@H]3CCCO3)ncc([C@H]3CC[C@H](O)CC3)c2n1 [Compound 412]
Response: +++ (a ratio of >100)

Prompt: State its Mer/Flt3 ratio (FLT3 IC50/Mer IC50): CC[C@H](C)Nc1ncc2c(C3CCN(C)CC3)ncc([C@H]3CC[C@H](O)CC3)c2n1 [Compound 240]
Response: +++ (a ratio of >100)
